test-details: Wetting properties: contact angle on solid substrates, optical contact angle goniometer
Format: physicochemical
assay-conditions: substrate Polyethylene-HD, 10x CMC
readout-type: CA of Surfactant (contact angle) (°)

compound="CCCCCCCCCCCCOC(=O)CCCCCN.Cl [Surfactant 5]" readout_type="CA of Surfactant (contact angle)" readout_number=16.6
compound="CCCCCCCCCCCCOC(=O)CCCCC[N+](C)(C)[O-] [Surfactant 2]" readout_type="CA of Surfactant (contact angle)" readout_number=39.3
compound="CCCCCCCCCCCCOC(=O)CCCCCN(C)C.Cl [Surfactant 3]" readout_type="CA of Surfactant (contact angle)" readout_number=42.5

I: CCCCCCCCCCCCOC(=O)CCCCC[N+](C)(C)C.[I-] [Surfactant 1]
II: CCCCCCCCCCCCOC(=O)CCCCC[N+](C)(C)CCCCS(=O)(=O)[O-] [Surfactant 4]
Qu. Please compare: I and II . Report which one has the smaller CA of Surfactant (contact angle) value. Reply with the label of the item you choose.
Ans. I
